target: UniProtKB Q8IIJ9; test: biochemical; assay type: biochemical; settings: 10 μM compound, parasite lysates, (PR)2Rho, 30 min end-point; read-out: DPAP1 % Inhibition @ 10 uM
Sequence (Q8IIJ9 370-599 limits assumed): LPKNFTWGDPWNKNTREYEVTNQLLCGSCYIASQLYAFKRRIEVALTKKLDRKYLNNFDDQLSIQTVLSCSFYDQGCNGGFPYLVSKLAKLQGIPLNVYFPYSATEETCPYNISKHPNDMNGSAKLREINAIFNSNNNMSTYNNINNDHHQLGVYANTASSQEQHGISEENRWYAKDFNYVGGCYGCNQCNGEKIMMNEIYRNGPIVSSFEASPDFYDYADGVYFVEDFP
Sequence (Q8IIJ9 28-209 limits assumed): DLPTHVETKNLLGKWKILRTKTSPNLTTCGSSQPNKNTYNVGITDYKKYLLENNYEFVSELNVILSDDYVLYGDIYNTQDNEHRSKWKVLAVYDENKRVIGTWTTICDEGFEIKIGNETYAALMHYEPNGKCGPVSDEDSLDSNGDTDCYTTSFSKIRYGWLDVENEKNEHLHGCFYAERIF
Sequence (Q8IIJ9 600-700 limits assumed): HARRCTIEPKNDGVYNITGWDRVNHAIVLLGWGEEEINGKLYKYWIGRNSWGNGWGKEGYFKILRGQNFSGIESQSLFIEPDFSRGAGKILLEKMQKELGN
Grouping rule (inhibition at 10 µM): group 1 = under 30%, group 2 = from 30% up to 60%, group 3 = 60% and over

| compound | classification |
| --- | --- |
| COc1ccc(OC)c(C2CC(=O)N3CN(C4CCCCC4)CSC3=C2C#N)c1 (centres unmarked) | group 1 |

[in] Sort into band: CCOc1cc(C2CC(=O)N3CN(Cc4ccccc4)CSC3=C2C#N)ccc1O (centres unmarked)
[out] group 1

[in] Sort into band: Cc1ccc(C2CC(=O)N3CN(C4CCCCC4)CSC3=C2C#N)cc1 (centres unmarked)
[out] group 1

[in] Sort into band: CCc1ccc(C2CC(=O)N3CN(C4CCCCC4)CSC3=C2C#N)cc1 (centres unmarked)
[out] group 3
